The measured values listed here are drawn from PubChem BioAssay (NCATS).

Overview of reported activity, negative = inhibition across a group of molecules:
Assay: Stat Signaling Pathway (AID 446);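 note: ME-180 cervical cancer cells given 40 pM IL-6 alongside compound; SIE-controlled beta-lactamase reporter measured as 460/530 nm FRET emission ratio; % is set by controls: 0 for no effect and ±100 for the full control effect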
Conditions: ME-180 (cervical carcinoma) SIE beta-lactamase reporter, IL-6 stimulated, 5 h; at 17.2 µM (top of the series) unless noted
Inconclusive results are not listed. The source made the active and inactive calls. Calls come from the whole dose curve; as a rule, active = well fitted curve in either direction with a large enough effect (not every such curve was filed as active); inconclusive = small, poorly fitted or top-dose-only effect, or another doubt; inactive = flat fitted curve, though single readings scatter.
experimental_readout: activity, negative = inhibition

>>> df
                                    molecule                  data_value
 0     CCCCn1c(O)c(C=NCCCN(C)C)c(=O)[nH]c1=O            3.99% (inactive)
 1  Cc1nc2oc(C(=O)c3ccc(Br)cc3)c(N)c2c2c1COC(C)(C)C2           0.926% (inactive)
 2  CC1(C)Cc2c(sc3c2C(=O)N(c2ccccc2)C2=NCCCN23)CO1            5.74% (inactive)
 3                 NCCC[C@@](N)(C(=O)O)C(F)F  2.8% [at 38 µM] (inactive)
 4  CCc1cc(=O)oc2cc(C)c(CN3CCCC(C)C3)c(O)c12 (stereo unspecified)           -15.7% (inactive)
 5  NS(=O)(=O)c1cc2c(cc1Cl)NC(C1C[C@H]3C=C[C@@H]1C3)NS2(=O)=O (stereo partly specified)         -0.0433% (inactive)
 6  CCCCc1nc(NCC2CCCO2)c(C#N)c2c1COC(C)(C)C2 (stereo unspecified)            1.02% (inactive)
 7     Cc1ccc(-n2ncc3c(N4CCCC4)ncnc32)c(C)c1           -1.13% (inactive)
 8        COc1ccc2cnn(-c3ccccc3C)c(=O)c2c1OC            24.1% (inactive)
 9  CC(=O)C1=C(O)C(=O)N(c2cccc(C(=O)O)c2)C1c1ccc(F)cc1 (stereo unspecified)            4.06% (inactive)
10      COC(=O)COn1c(SCC(=O)OC)nc2ccccc2c1=O            -1.3% (inactive)
